system: HL-60(TB) leukemia; test: NCI tumour cell line growth inhibition, 48 h
Overview of recorded TGI for various molecules

Look over these answered cases.
O=c1[nH]c(=O)n(C2CC(O)C(COP(=O)(O)OC3CC(n4cc(F)c(=O)[nH]c4=O)OC3COP(=O)(O)OC3CC(n4cc(F)c(=O)[nH]c4=O)OC3COP(=O)(O)OC3CC(n4cc(F)c(=O)[nH]c4=O)OC3COP(=O)(O)OC3CC(n4cc(F)c(=O)[nH]c4=O)OC3COP(=O)(O)OC3CC(n4cc(F)c(=O)[nH]c4=O)OC3COP(=O)(O)OC3CC(n4cc(F)c(=O)[nH]c4=O)OC3COP(=O)(O)OC3CC(n4cc(F)c(=O)[nH]c4=O)OC3COP(=O)(O)OC3CC(n4cc(F)c(=O)[nH]c4=O)OC3COP(=O)(O)OC3CC(n4cc(F)c(=O)[nH]c4=O)OC3CO)O2)cc1F (stereo not given); > 50 µM
CCCCCCc1cc2cc(C(=O)Nc3ccccc3F)c(=N)oc2cc1O; 31.9 µM
NC(=O)Cc1ncn(-c2ccccc2)n1; > 100 µM
Oc1ccc(-c2c3ccccc3c(-c3ccc(OCCBr)cc3)c3ccccc23)cc1; 70.1 µM
Cc1nc2c(=O)[nH]c3ccccc3c2o1; > 100 µM
COc1ccc2nc3cc(Cl)ccc3c(NCCC(=O)OCC(O)C(O)C(O[C@H](C)C(=O)NC(C)C(=O)NC(CCC(N)=O)C(=O)OCc3ccccc3)C(C=O)NC(C)=O)c2c1 (stereo not given in full); 56.3 µM
C[C@@H](C(=O)O)c1ccc(-c2ccccc2)c(F)c1; > 100 µM
O=C(c1ccccn1)c1nnn2ccccc12; > 100 µM
CCOC(=O)c1ccc2c(c1)[n+](=O)c(C(=O)c1ccc3ccccc3c1)c(C(F)(F)F)n2[O-]; 2.82 µM
CCCN(CCC)c1ccc(C=O)cc1; > 84 µM

What value of TGI on HL-60(TB) leukemia does O=C(O)CN(CC(=O)O)Cc1cc2c(cc1O)Oc1cc(O)c(CN(CC(=O)O)CC(=O)O)cc1C21OC(=O)c2ccccc21 have?
> 100 µM

What value of TGI on HL-60(TB) leukemia does CC(=O)OCc1cccc(O)c1C(=O)CCC=C(C)C have?
> 100 µM

What value of TGI on HL-60(TB) leukemia does COC(=O)C1=C(C(=O)OC)SC(=C2c3ccsc3-c3sccc32)S1 have?
58.7 µM

What value of TGI on HL-60(TB) leukemia does COc1ccc(CN2C(=O)C(Cc3cc(OC)c(OC)c(C)c3OC)N(C(=O)OC(C)C)C(=O)/C2=C/c2cc(OC)c(OC)c(C)c2OC)cc1 (stereo not given) have?
> 100 µM

What value of TGI on HL-60(TB) leukemia does Fc1ccc(-c2ncn(C3CCNCC3)c2-c2ccnc(Oc3ccccc3)n2)cc1 have?
> 25 µM

What value of TGI on HL-60(TB) leukemia does O=C(CCc1nnc2s/c(=C\c3ccc4c(c3)OCO4)c(=O)n12)Nc1cc(Cl)ccc1Cl have?
> 100 µM

What value of TGI on HL-60(TB) leukemia does O=C(/C=C/c1ccccn1)c1ccccc1O have?
6.15 µM

* * *

test system: SF-268 CNS; assay: NCI tumour cell line growth inhibition, 48 h
QUANTITY MEASURED: GI50

Consider the compound COc1ccc(Nc2c3c4c(cccc4[nH]c2=O)C(=O)c2ccccc2-3)cc1 and give its measured GI50.
37.3 nM

Consider the compound CN(C)c1ccc(/C=C(\C#N)c2cc3ccccc3n2C)cc1 and give its measured GI50.
2180 nM

Consider the compound CCOC(=O)c1c[nH]c2c(OCc3ccccc3)c3ccccc3c(O)c2c1=O and give its measured GI50.
12900 nM

Consider the compound O=C(CCc1nnc(-c2c(Cl)cccc2Cl)o1)c1nc2ccccc2[nH]1 and give its measured GI50.
7290 nM

Consider the compound C=C1C(=O)O[C@H]2[C@H]1CC/C(COC(=O)/C=C\C(=O)NCc1ccc(Cn3c(=O)sn(-c4ccc(OC)cc4)c3=O)cc1)=C\CC[C@@]1(C)O[C@@H]21 and give its measured GI50.
693 nM

* * *

test system: MCF7 breast; assay: NCI tumour cell line growth inhibition, 48 h
QUANTITY MEASURED: TGI

Look over these answered cases.
CS(=O)(=O)N1CCN(Cc2cc3nc(-c4cccc5[nH]ncc45)nc(N4CCOCC4)c3s2)CC1; > 100 µM
CCCCCCNC(=O)c1cc(C#Cc2cc(OC)ccc2OC)ccc1OC; > 100 µM
CC1=NN(C(=O)CC(=O)Nc2ccccc2C)C(=O)C1N=Nc1ccc(S(=O)(=O)c2ccc(N=NC3C(=O)N(C(=O)CC(=O)Nc4ccccc4C)N=C3C)cc2)cc1 (centres undefined); > 100 µM
Cc1c(C)c(S(=O)(=O)N(CCCCCN)OCCCN)c(C)c2c1OC(C)(C)CC2; > 100 µM
COc1ccc2c(C)cc(N/N=C/c3sccc3C)nc2c1; 26.1 µM
O=c1[nH]c(=O)n(C2CC(O)C(COP(=O)(O)OC3CC(n4cc(F)c(=O)[nH]c4=O)OC3COP(=O)(O)OC3CC(n4cc(F)c(=O)[nH]c4=O)OC3COP(=O)(O)OC3CC(n4cc(F)c(=O)[nH]c4=O)OC3COP(=O)(O)OC3CC(n4cc(F)c(=O)[nH]c4=O)OC3COP(=O)(O)OC3CC(n4cc(F)c(=O)[nH]c4=O)OC3COP(=O)(O)OC3CC(n4cc(F)c(=O)[nH]c4=O)OC3COP(=O)(O)OC3CC(n4cc(F)c(=O)[nH]c4=O)OC3COP(=O)(O)OC3CC(n4cc(F)c(=O)[nH]c4=O)OC3COP(=O)(O)OC3CC(n4cc(F)c(=O)[nH]c4=O)OC3CO)O2)cc1F (centres undefined); > 50 µM

Consider the compound COc1ccc(/C=C/C(=O)c2nc3ccccc3[nH]2)cc1 and give its measured TGI.
> 81 µM

Consider the compound Oc1ccc(-c2c3ccccc3c(-c3ccc(OCCBr)cc3)c3ccccc23)cc1 and give its measured TGI.
32 µM

Consider the compound CC1(C)CC[C@]2(C(=O)n3ccnc3)CC[C@]3(C)[C@H](C(=O)C=C4[C@@]5(C)C=C(C#N)C(=O)C(C)(C)[C@@H]5CC[C@]43C)[C@@H]2C1 and give its measured TGI.
> 100 µM

Consider the compound CC(=O)OCc1cccc(O)c1C(=O)CCC=C(C)C and give its measured TGI.
> 100 µM

Consider the compound CCOCCc1c(O)nc(SC)[nH]c1=O and give its measured TGI.
> 100 µM

Consider the compound C=C1C(=O)O[C@H]2[C@H]1CC/C(COC(=O)/C=C\C(=O)NCc1ccc(Cn3c(=O)sn(-c4ccc(OC)cc4)c3=O)cc1)=C\CC[C@@]1(C)O[C@@H]21 and give its measured TGI.
1.17 µM

Consider the compound CCOC(=O)c1ccc2c(c1)[n+](=O)c(C(=O)c1ccc3ccccc3c1)c(C(F)(F)F)n2[O-] and give its measured TGI.
2.42 µM

Consider the compound COc1cc2c(c(N)c1OC)C(=O)/C(=C/c1cc(C)c(O)c(C)c1)C2 and give its measured TGI.
> 100 µM

* * *

Overview of recorded TGI for various compounds
system: NCI-H522 lung; experiment: NCI tumour cell line growth inhibition, 48 h

Nc1nc(=O)n(C2CC(O)C(O)C(CO)O2)cc1F (stereo not drawn); > 100 µM

Consider the compound COc1ccc(C(=O)/C(=N/Nc2ccccc2)c2ccc(OC)cc2)cc1 and give its measured TGI.
> 100 µM

Consider the compound CCOC(=O)NC(=O)c1cn(CCCCCOC(=O)NCCCCCCNC(=O)OCCCCCn2cc(C(=O)NC(=O)OCC)c(=O)[nH]c2=O)c(=O)[nH]c1=O and give its measured TGI.
> 100 µM

* * *

Overview of recorded TGI for various molecules
system: K-562 leukemia; test: NCI tumour cell line growth inhibition, 48 h
Give the value, in units of µM, as a plain number.

Look over these answered cases.
O/N=C(\C=N\O)c1ccc2c(c1)Sc1ccccc1O2; 85.4
O=C(c1ccccc1)c1ccc(Cl)c([N+](=O)[O-])c1; 11.9
C#CC[C@@H]1C[C@]2(C)[C@H]3CC[C@@H]4[C@H]5[C@H](C(=C)C)CC[C@]5(C(=O)O)CC[C@@]4(C)[C@]3(C)CC[C@H]2C(C)(C)[C@H]1O; 20.9

Okay, next one:
Consider the molecule Oc1ccc(-c2c3ccccc3c(-c3ccc(OCCBr)cc3)c3ccccc23)cc1 and give its measured TGI.
97.4

* * *

tested on: SR leukemia; assay: NCI tumour cell line growth inhibition, 48 h
Overview of recorded TGI for various compounds

Cc1ccccc1N=Cc1ccc(N(CCC#N)S(=O)(=O)c2ccccc2)cc1; > 100 µM
Nc1ncnc2c1ncn2[C@@H]1C[C@H]1CO; > 100 µM

Okay, next one:
Consider the compound O=C1Nc2ccccc2C1(c1ccc(O)c(F)c1)c1ccc(O)c(F)c1 and give its measured TGI.
> 52.3 µM
